Each recorded value in this set is attributed to ChEMBL document CHEMBL4433195.

target: Histamine H3 receptor (Homo sapiens, UniProt Q9Y5N1); experiment: Binding affinity to human H3R expressed in rat C6 cells; type: cell-based
Sequence (Q9Y5N1 whole entry): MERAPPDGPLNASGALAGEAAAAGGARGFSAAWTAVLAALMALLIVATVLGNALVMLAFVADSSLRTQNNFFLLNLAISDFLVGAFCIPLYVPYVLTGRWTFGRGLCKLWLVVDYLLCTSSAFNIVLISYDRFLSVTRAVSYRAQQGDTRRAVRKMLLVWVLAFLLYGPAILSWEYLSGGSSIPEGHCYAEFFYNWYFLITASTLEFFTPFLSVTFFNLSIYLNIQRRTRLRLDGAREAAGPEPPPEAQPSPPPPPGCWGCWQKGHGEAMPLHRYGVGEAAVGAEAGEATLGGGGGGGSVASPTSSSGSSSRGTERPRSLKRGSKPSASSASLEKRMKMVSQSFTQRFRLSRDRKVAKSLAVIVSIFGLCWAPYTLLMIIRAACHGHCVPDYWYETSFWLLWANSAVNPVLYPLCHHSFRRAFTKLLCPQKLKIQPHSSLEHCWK
pKi: −log10 of the molar value.
result-type: pKi

smi	measured-target	result-type	experimental-result
C[C@@H]1CC[C@@H](C)N1CCCOc1ccc(-c2ccc(C(=O)N3CCOCC3)cc2)cc1	Histamine H3 receptor (Homo sapiens, UniProt Q9Y5N1)	pKi	9.38
